# Experimental system: porcine FcRn complex (porcine) (UniProt Q07717)
# Sequence (main, as listed by the source, chain 1 of 2): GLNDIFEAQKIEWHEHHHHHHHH
# Sequence (Q07717 other isoform, or with tags, fused parts or gaps, chain 2 of 2): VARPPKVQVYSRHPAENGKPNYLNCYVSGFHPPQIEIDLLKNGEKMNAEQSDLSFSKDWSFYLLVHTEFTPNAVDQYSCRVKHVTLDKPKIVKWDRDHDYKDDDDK
# Test: SPR (Biacore 8K+), pH 5.9, 25 C; FcRn captured by anti-His, IgG as analyte; 1:1 kinetic model

[
  {
    "Binder": "Porcine Q309V (antibody, part only; not given: variable domains, light chain, IgG1a, not shown: another chain or arm of the molecule) Fc: GCEVAGPSVFIFPPKPKDTLMISQTPEVTCVVVDVSKEHAEVQFSWYVDGVEVHTAETRPKEEQFNSTYRVVSVLPIVHQDWLKGKEFKCKVNNVDLPAPITRTISKAIGQSREPQVYTLPPPAEELSRSKVTVTCLVIGFYPPDIHVEWKSNGQPEPEGNYRTTPPQQDVDGTFFLYSKLAVDKARWDHGETFECAVMHEALHNHYTQKSISKTQGK",
    "Unit tag": "fold",
    "Fold increase over wild-type KD": 9.3
  },
  {
    "Binder": "Porcine Q309D (antibody, part only; not given: variable domains and light chain, IgG1a, not shown: another chain or arm of the molecule) Fc: GCEVAGPSVFIFPPKPKDTLMISQTPEVTCVVVDVSKEHAEVQFSWYVDGVEVHTAETRPKEEQFNSTYRVVSVLPIDHQDWLKGKEFKCKVNNVDLPAPITRTISKAIGQSREPQVYTLPPPAEELSRSKVTVTCLVIGFYPPDIHVEWKSNGQPEPEGNYRTTPPQQDVDGTFFLYSKLAVDKARWDHGETFECAVMHEALHNHYTQKSISKTQGK",
    "Unit tag": "fold",
    "Fold increase over wild-type KD": 3.4
  },
  {
    "Binder": "Porcine A426Y (antibody, part only; not given: variable domains, light chain, IgG1a, not shown: another chain or arm of the molecule) Fc: GCEVAGPSVFIFPPKPKDTLMISQTPEVTCVVVDVSKEHAEVQFSWYVDGVEVHTAETRPKEEQFNSTYRVVSVLPIQHQDWLKGKEFKCKVNNVDLPAPITRTISKAIGQSREPQVYTLPPPAEELSRSKVTVTCLVIGFYPPDIHVEWKSNGQPEPEGNYRTTPPQQDVDGTFFLYSKLAVDKARWDHGETFECYVMHEALHNHYTQKSISKTQGK",
    "Unit tag": "fold",
    "Fold increase over wild-type KD": 3
  },
  {
    "Binder": "Porcine M428Y (antibody, part only; not given: variable domains and light chain, IgG1a, not shown: another chain or arm of the molecule) Fc: GCEVAGPSVFIFPPKPKDTLMISQTPEVTCVVVDVSKEHAEVQFSWYVDGVEVHTAETRPKEEQFNSTYRVVSVLPIQHQDWLKGKEFKCKVNNVDLPAPITRTISKAIGQSREPQVYTLPPPAEELSRSKVTVTCLVIGFYPPDIHVEWKSNGQPEPEGNYRTTPPQQDVDGTFFLYSKLAVDKARWDHGETFECAVYHEALHNHYTQKSISKTQGK",
    "Unit tag": "fold",
    "Fold increase over wild-type KD": 3.6
  },
  {
    "Binder": "Porcine N434Y (antibody, part only; not given: variable domains and light chain, IgG1a, not shown: another chain or arm of the molecule) Fc: GCEVAGPSVFIFPPKPKDTLMISQTPEVTCVVVDVSKEHAEVQFSWYVDGVEVHTAETRPKEEQFNSTYRVVSVLPIQHQDWLKGKEFKCKVNNVDLPAPITRTISKAIGQSREPQVYTLPPPAEELSRSKVTVTCLVIGFYPPDIHVEWKSNGQPEPEGNYRTTPPQQDVDGTFFLYSKLAVDKARWDHGETFECAVMHEALHYHYTQKSISKTQGK",
    "Unit tag": "fold",
    "Fold increase over wild-type KD": 40
  },
  {
    "Binder": "Porcine Q311V (antibody, part only; not given: variable domains and light chain, IgG1a, not shown: another chain or arm of the molecule) Fc: GCEVAGPSVFIFPPKPKDTLMISQTPEVTCVVVDVSKEHAEVQFSWYVDGVEVHTAETRPKEEQFNSTYRVVSVLPIQHVDWLKGKEFKCKVNNVDLPAPITRTISKAIGQSREPQVYTLPPPAEELSRSKVTVTCLVIGFYPPDIHVEWKSNGQPEPEGNYRTTPPQQDVDGTFFLYSKLAVDKARWDHGETFECAVMHEALHNHYTQKSISKTQGK",
    "Unit tag": "fold",
    "Fold increase over wild-type KD": 4.1
  }
]
